# System: HEK-293T
# method.description: Multiplex assay against HEK293T
# Assay type: toxicity, cell-based
# settings: human, 48 h, 10 µM, compound concentration 10 uM, replicate 2
measurement.type: Population Healthy Nuclei (%)
# unit: % | format: bare number

"C[C@@H]1CC(=O)Nc2cccc(-c3ccc4c(c3)c(-c3cnn(C)c3)nn4C)c2N1" has a reported Population Healthy Nuclei (%) of 78

COCCCN1CCC(NC(=O)c2cc(Cl)c(N)c3c2OCC3)CC1 [PRUCALOPRIDE] has a reported Population Healthy Nuclei (%) of 75

"Nc1nc(-c2ccco2)c2cnn(Cc3ccccc3F)c2n1" has a reported Population Healthy Nuclei (%) of 74

Continuing:
Cc1ccc(OCC(O)C(C)NC(C)C)c2c1CCC2.Cl (centres undefined) has a reported Population Healthy Nuclei (%) of 80

CCn1c(-c2nc3cc(C(=O)N4CCCC(N)C4)ccc3n2C)cc2ccccc21.Cl (centres undefined) has a reported Population Healthy Nuclei (%) of 79

"COc1cc(C(=O)N2CC[C@@H](O)[C@@H](N)C2)cc2nc(-c3cc4ccccc4n3CC3CC3)n(C)c12.Cl" has a reported Population Healthy Nuclei (%) of 75

"N[C@](CC1c2ccccc2Oc2ccccc21)(C(=O)O)[C@H]1C[C@@H]1C(=O)O" has a reported Population Healthy Nuclei (%) of 80

"COCCn1c(C)c(C)s/c1=N\C(=O)C1C(C)(C)C1(C)C" has a reported Population Healthy Nuclei (%) of 79

"Cc1cc(=O)n(C)c2cc(N3C(=O)CC[C@H](NS(=O)(=O)CC(C)C)[C@H]3c3ccc(Cl)cc3)ccc12" has a reported Population Healthy Nuclei (%) of 67

"Cn1cc(C(=O)OCC2CCN(CCNS(C)(=O)=O)CC2)c2ccccc21" has a reported Population Healthy Nuclei (%) of 79

"C[C@H](NC(=O)CNC(=O)c1cccc(Cl)c1)c1ccccc1" has a reported Population Healthy Nuclei (%) of 72

O=C(O)CCC/C=C\CC1C(O)CC(O)C1/C=C/C(O)COc1cccc(Cl)c1 (centres undefined) [CLOPROSTENOL] has a reported Population Healthy Nuclei (%) of 75
